B1: CPEB3 Ribozyme (parent)
chain: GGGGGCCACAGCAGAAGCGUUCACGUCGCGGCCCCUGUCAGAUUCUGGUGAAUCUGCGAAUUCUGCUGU

# Variants of: B1
# experiment_description: self-cleavage, relative activity (ratio to wild type); higher = more cleavage; co-transcriptional
Would you kindly list self-cleavage for each of these variants?
Respond with the number and no other words.

Exercise: Give its self-cleavage value. Item: C32U U64A
Key: 0.992

Exercise: Give its self-cleavage value. Item: U43A C63U
Key: 0.86

Exercise: Give its self-cleavage value. Item: G3A A13C
Key: 0.298

Exercise: Give its self-cleavage value. Item: C34U G58C
Key: 0.995

Exercise: Give its self-cleavage value. Item: C6U C27U
Key: 0.256

Exercise: Give its self-cleavage value. Item: A23U A59U
Key: 0.969

Exercise: Give its self-cleavage value. Item: G31A C57G
Key: 0.254

Exercise: Give its self-cleavage value. Item: C22A C57A
Key: 0.174

Exercise: Give its self-cleavage value. Item: G3U G31C
Key: 0.0621

Exercise: Give its self-cleavage value. Item: U26C A60G
Key: 0.85

Exercise: Give its self-cleavage value. Item: C29A U69G
Key: 0.864

Exercise: Give its self-cleavage value. Item: G11U C33U
Key: 0.948

Exercise: Give its self-cleavage value. Item: C34U G48A
Key: 0.986

Exercise: Give its self-cleavage value. Item: G30C G65U
Key: 0.371

Exercise: Give its self-cleavage value. Item: G25C C45A
Key: 0.204

Exercise: Give its self-cleavage value. Item: A51C U62G
Key: 0.778

Exercise: Give its self-cleavage value. Item: G28A G31U
Key: 0.197

Exercise: Give its self-cleavage value. Item: C35U C45U
Key: 0.994

Exercise: Give its self-cleavage value. Item: C6U G41U
Key: 0.817

Exercise: Give its self-cleavage value. Item: C29U U53C
Key: 0.143

Exercise: Give its self-cleavage value. Item: C7G G41C
Key: 0.121

Exercise: Give its self-cleavage value. Item: G19C A40C
Key: 0.0886

Ref: the RNAGym collection of RNA variant scans (doi:10.7554/elife.80360)
